# Tested on: Plasmodium berghei
# test description: Screen against P. berghei liver stage (PbLuc), transformed with Luciferase, at 10uM
# Type: functional, HepG2
# run parameters: tested at 10 uM
Screen size: about 69,000 compounds; about 8,600 (12%) showed an effect of 50% or more. The list comes from a sample in which strong results are over-represented; it also holds close analogues and randomly drawn compounds.
Output criterion met for INHIBITION not less than 30%; output criterion not met otherwise.

compound: COCC1CN(c2ccc3c(Cl)ccnc3c2F)CCO1 (stereo unspecified)
label: criterion met
--
compound: Clc1ccc(CNc2ccc(Cl)cn2)cc1
label: criterion not met
--
compound: Cn1c2c(ccc1=O)CC(Nc1ncc(F)cn1)CC2 (stereo unspecified)
label: criterion not met
--
compound: CCN1C[C@@H]2[C@@H](OC)CCN(C(=O)Cc3ccsc3)[C@@H]2C1
label: criterion not met

====

# Tested on: Plasmodium berghei
# test description: Screen against P. berghei liver stage (PbLuc), transformed with Luciferase, at 10uM
# Assay type: functional, HepG2
# run parameters: tested at 10 uM
In all, about 69,000 compounds went through this assay and about 8,600 (12%) showed an effect of 50% or more. The sample holds strong results, similar compounds and a random draw of the others, so the mix is not that of the screen.
Entries get a class label from measured INHIBITION. See ranges: label 0 (below 10%), label 1 (10% to below 40%), label 2 (40% or more)

molecule: Cn1nc(Cn2ccnc2)c2c1CN(C(=O)c1ccoc1)C2
target: Plasmodium berghei
label: label 2

molecule: CC(C)(C)SCC(=O)NC(C)(C(N)=O)c1cccc(Cl)c1 (centres undefined)
target: Plasmodium berghei
label: label 0

molecule: CC(C)c1nc(C2CCCN(C(=O)c3nccn4ccnc34)C2)no1 (centres undefined)
target: Plasmodium berghei
label: label 0

molecule: CC(C)(CNC(=O)c1ccc(Cl)o1)NC(=O)OC(C)(C)C
target: Plasmodium berghei
label: label 0

molecule: Cc1cc(CN2CCN(C(c3ccccc3)c3ccccc3)CC2)no1
target: Plasmodium berghei
label: label 2

molecule: COc1ccc(C(=O)N2Cc3c(Cn4ccnc4)nn(C)c3C2)cc1
target: Plasmodium berghei
label: label 1

molecule: Cc1cc(CNC(=O)Cc2cccs2)ccc1S(C)(=O)=O
target: Plasmodium berghei
label: label 0

molecule: CCN(CC1CCCO1)S(=O)(=O)N1CCCCCC1 (centres undefined)
target: Plasmodium berghei
label: label 0

molecule: O=C(c1ccc2c(c1)OCCCO2)N1CCCC(n2ccnc2)C1 (centres undefined)
target: Plasmodium berghei
label: label 2

molecule: CC(NC(=O)Cc1ccccc1F)(C(N)=O)c1cccc(Cl)c1 (centres undefined)
target: Plasmodium berghei
label: label 1

molecule: Cn1nc(CN2CCCCC2)c2c1CN(C(=O)Nc1cccc(F)c1)C2
target: Plasmodium berghei
label: label 2

molecule: COCCC(=O)N1C[C@@H](O)[C@H](N2CCN(c3ccccc3)CC2)C1
target: Plasmodium berghei
label: label 1

molecule: Cc1noc2nc(C3CCCN(Cc4cccnc4)C3)cc(C(F)F)c12 (centres undefined)
target: Plasmodium berghei
label: label 2

molecule: COCCC(=O)NC(C)(C(N)=O)c1cccc(Cl)c1 (centres undefined)
target: Plasmodium berghei
label: label 1

molecule: Cc1nncn1CCNC(=O)C(C)(C)c1cccc(Cl)c1
target: Plasmodium berghei
label: label 1

molecule: CCOCc1nn(CC2CC2)c2c1CN(Cc1ccco1)CC2
target: Plasmodium berghei
label: label 1

molecule: Cc1n[nH]c(C2CN(C(=O)CCOCC(F)(F)F)CCO2)n1 (centres undefined)
target: Plasmodium berghei
label: label 1

molecule: Cc1cc(CN2CCN(CC(O)c3cccc(F)c3)CC2)no1 (centres undefined)
target: Plasmodium berghei
label: label 0

molecule: CC(NC(=O)Cc1cccs1)(C(N)=O)c1cccc(Cl)c1 (centres undefined)
target: Plasmodium berghei
label: label 2

molecule: COCCN(Cc1ccccc1Cl)c1nc(CCN)nc2ccccc12
target: Plasmodium berghei
label: label 2

molecule: CSc1ccc(-c2nc(CN3C[C@@H](C)NC[C@@H]3C)c(C)o2)cc1
target: Plasmodium berghei
label: label 1

molecule: CN(C)Cc1nn(C)c2c1CN(C(=O)Nc1cccc(F)c1)C2
target: Plasmodium berghei
label: label 0

molecule: CSCCC(C)(O)CNS(=O)(=O)Cc1ccc(F)cc1 (centres undefined)
target: Plasmodium berghei
label: label 2

molecule: COCCN1CCCN(C(=O)NC(C)Cn2cccn2)CC1 (centres undefined)
target: Plasmodium berghei
label: label 2
